Ref: patent US20250051443A1

Target: T1, human CD3 (human, UniProt P07766 23-207; P09693 23-182; P04234 22-171)
T1 construct: whole, on cells; also called CD3 on Jurkat T cells; CD3 on primary human T cells
Test: flow cytometry, hybridoma supernatant on CD3+ Jurkat cells
Description: Cells were stained with either negative control mouse IgG (Jackson Immunoresearch cat #115-000-003) or an anti-GFP 3E6 mAb supernatant or tested hybridoma supernatant. Specific binding was reflected by the increase in the mean fluorescent intensity of antibody binding to Jurkat T-cells (FIGS. 1A to 1F, grey histograms) compared to the Jurkat CD3 negative cell line J.RT3-T3.5 (FIGS. 1A to 1F, open histograms). AF488 labeled positive control mAb OKT3 was also analyzed.

{"binder": "F332-7C9 (antibody, mouse IgG2a, V domains shown, also called F332-7C9-2; F332-7C9 (5C7, 7D10)) VH: QVQLQQSGPELVKPGASVRISCKASGYTFTSHYLHWVKQRPGQGFEWIGWIYPGDGNTRYNEKFKDRATLTADKSSSTAYLHLSSLTSEDSAVYFCARDAGYYFDYWGQGTTLAVSS VL: DIVMSQSPSSLAVSAGEKVTMSCKSSQSLLNSRTRKNYLAWYQQKPGQSLKVLIYWASTRESGVPDRFTGSGSGTDFTLTISSVQAEDLAVYYCKQSYSLRTFGGGTKLEIK", "MFI, MFI": 285}
{"binder": "F332-4D6 (antibody, mouse IgG2a, V domains shown, also called F332-4D6-2; F322-4D6) VH: QVQLQQSGAELGKPGTSVKLSCKASGYTFTSYWIHWVKQRPGQGLEWIGNINPNSGSTNYNEKFKRKATLTADKSSSTAYMQLSTLTSEDFAVYYCTRDTSGQYYFDYWGQGTTLTVSS VL: DIVMSQSPSSLAVSAGEKVTMSCKSSQSLLNSRTRKNYLAWYQQKPGQSPKVLIYWASTRESGVPDRFTGSGSGTDFTLTISSVQAEDLAVYYCKQSYHLRTFGGGTKLEIK", "MFI, MFI": 398}
{"binder": "F332-7E3 (antibody, mouse IgG2a, V domains shown, also called F332-7E3-2) VH: QVQLQQPGAELGKPGTSVKLSCKASGYTFTSYWIHWVKQRPGQGLEWIGNINPNSGSINYNEKFKSKATLTVDKSSSTAYMQLSTLTSEDFAVYYCTRDTSGQYYFDYWGQGTTLTVSS VL: DIVMSQSPSSLAVSAGEKVTMSCKSSQSLLNSRTRKNYLAWYQQKPGQSPKLLIYWASTRESGVPDRFTGSGSGTDFTLTISSVQAEDLAVYYCKQSYHLRTFGGGTKLEIK", "MFI, MFI": 354}
